Assay: Serum fatty acid metabolomics (UPLC-MS/MS), feeding study
Settings: Group A dolphins; modified diet; proportional to value at outset of study
Quick list: serum concentration 18 wk / 0 wk per entry.
outcome_measure: serum concentration 18 wk / 0 wk

[[record]]
compound = "CCCCCCCC(=O)O [caprylate (8:0), caprylate]"
outcome_measure = "serum concentration 18 wk / 0 wk"
data_value = 0.96

[[record]]
compound = "CCCCCCCCCCCCCCCCC(=O)O [Heptadecanoic acid, heptadecanoic acid]"
outcome_measure = "serum concentration 18 wk / 0 wk"
data_value = 1.72

[[record]]
compound = "CCCCCCCCCCCCCC(=O)O [myristate (14:0), myristate]"
outcome_measure = "serum concentration 18 wk / 0 wk"
data_value = 0.74

[[record]]
compound = "CCCCCC(=O)O [caproate (6:0), caproate]"
outcome_measure = "serum concentration 18 wk / 0 wk"
data_value = 0.92

[[record]]
compound = "CC/C=C\\C/C=C\\C/C=C\\C/C=C\\C/C=C\\C/C=C\\CCC(=O)O [docosahexaenoate (DHA; 22:6n3), docosahexaenoate]"
outcome_measure = "serum concentration 18 wk / 0 wk"
data_value = 1.06

[[record]]
compound = "CCCCCCC(=O)O [heptanoate (7:0), heptanoate]"
outcome_measure = "serum concentration 18 wk / 0 wk"
data_value = 1.23


====

Experiment: Serum fatty acid metabolomics (UPLC-MS/MS), feeding study
Settings: Group A dolphins; modified diet; proportional to value at outset of study
Property: serum concentration 24 wk / 0 wk; scope: individual compounds
outcome_measure: serum concentration 24 wk / 0 wk

[[record]]
compound = "CCCCCC(=O)O [caproate (6:0), caproate]"
data_value = 0.76

[[record]]
compound = "CC/C=C\\C/C=C\\C/C=C\\C/C=C\\C/C=C\\C/C=C\\CCC(=O)O [docosahexaenoate (DHA; 22:6n3), docosahexaenoate]"
data_value = 0.74

[[record]]
compound = "CCCCCCCC(=O)O [caprylate (8:0), caprylate]"
data_value = 1.12

[[record]]
compound = "CCCCCCCCCCCCCC(=O)O [myristate (14:0), myristate]"
data_value = 0.58

[[record]]
compound = "CCCCCCCCCCCCCCCCC(=O)O"
data_value = 1.21

[[record]]
compound = "CCCCCCC(=O)O [heptanoate (7:0), heptanoate]"
data_value = 1.21


====

Reported serum concentration 18 wk / 0 wk values are given for each entry in this list.
Assay: Serum fatty acid metabolomics (UPLC-MS/MS), feeding study
Conditions: in vivo
outcome_measure: serum concentration 18 wk / 0 wk

[[record]]
compound = "CCCCCC/C=C\\CCCCCCCC(=O)O [palmitoleate (16:ln7), palmitoleate]"
data_value = 0.76

[[record]]
compound = "CCCCCCCCC=CCCCCCCCCC(=O)O [10-nonadecenoate (19:ln9), 10-nonadecenoate]"
data_value = 1.17

[[record]]
compound = "CCCCCCCCCCCCCCC(=O)O [pentadecanoate (15:0), pentadecanoate]"
data_value = 1.42


====

Test: Serum fatty acid metabolomics (UPLC-MS/MS), feeding study
Settings: in vivo
Consider the following compounds and their measured serum concentration 6 wk / 0 wk readings.
outcome_measure: serum concentration 6 wk / 0 wk

[[record]]
compound = "CCCCCCCCCCCCCCC(=O)O [pentadecanoate (15:0), pentadecanoate]"
data_value = 1.01

[[record]]
compound = "CCCCC/C=C\\C/C=C\\CCCCCCCCCCCC(=O)O [docosadienoate (22:2n6), docosadienoate]"
data_value = 0.85

[[record]]
compound = "CCCC/C=C\\CCCCCCCC(=O)O [myristoleate (14:ln5), myristoleate]"
data_value = 1.45

[[record]]
compound = "CCCCCC/C=C\\CCCCCCCC(=O)O [palmitoleate (16:ln7), palmitoleate]"
data_value = 0.85

